Test system: α-glucosidase
Assay: SDS-PAGE electrophoretic α-glucosidase pattern
Format: biochemical
Conditions: 100 µg/mL
// reported Diff% (decrease in the quantity of the identified α-glucosidase band) per item
Attribute Measured: Diff% (decrease in the quantity of the identified α-glucosidase band)

{"columns": ["Molecule", "Reading"],
 "data": [
  ["CC1(C)OC(=O)C=C[C@]2(C)[C@H]3CC[C@@](C)([C@@H](O[C@@H]4O[C@H](CO)[C@@H](O)[C@H](O)[C@H]4O)c4ccoc4)[C@@]4(O[C@@H]4C(=O)O)[C@]3(C)C(=O)C[C@@H]12 [Cpd4, obacunone 17-O-β-D-glucopyranoside]", "64.41%"],
  ["CC1(C)OC2CC(=O)OCC23C1CC(=O)C1(C)C3CC[C@@](C)([C@@H](O[C@@H]2O[C@H](CO)[C@@H](O)[C@H](O)[C@H]2O)c2ccoc2)C12OC2C(=O)O (stereo partly drawn) [Cpd5, limonin 17-O-β-D-glucopyranoside]", "69.27%"]
]}

====

// reported SI% (similarity index) of electrophoretic α-amylase pattern to the standard enzyme per item
System: α-amylase
Test: Native electrophoretic α-amylase isoenzyme pattern (PAGE)
Type: biochemical
Conditions: standard enzyme treated with 100 µg/mL
Attribute Measured: SI% (similarity index) of electrophoretic α-amylase pattern to the standard enzyme (%)

{"columns": ["Compound", "Units", "Reading"],
 "data": [
  ["CC(=O)O[C@H]1CC(=O)OC(C)(C)[C@@H]2CC(=O)[C@]3(C)[C@H](CC[C@@]4(C)[C@H](c5ccoc5)OC(=O)[C@H]5O[C@]543)[C@@]12C", "%", 100.00],
  ["CC1(C)OC2CC(=O)OCC23C1CC(=O)C1(C)C3CC[C@@](C)([C@@H](O[C@@H]2O[C@H](CO)[C@@H](O)[C@H](O)[C@H]2O)c2ccoc2)C12OC2C(=O)O (stereo partly drawn) [Cpd5, limonin 17-O-β-D-glucopyranoside]", "%", 0.00],
  ["CC1(C)OC(=O)C=C[C@]2(C)[C@H]3CC[C@@](C)([C@@H](O[C@@H]4O[C@H](CO)[C@@H](O)[C@H](O)[C@H]4O)c4ccoc4)[C@@]4(O[C@@H]4C(=O)O)[C@]3(C)C(=O)C[C@@H]12 [Cpd4, obacunone 17-O-β-D-glucopyranoside]", "%", 0.00],
  ["CC1(C)O[C@H]2CC(=O)OC[C@]23[C@H]2CC[C@@]4(C)[C@H](c5ccoc5)OC(=O)[C@H]5O[C@]54[C@]2(C)C(=O)C[C@@H]13", "%", 100.00],
  ["CC1(C)OC(=O)C[C@H](O)[C@]2(C)[C@H]3CC[C@@]4(C)[C@H](c5ccoc5)OC(=O)[C@H]5O[C@]54[C@]3(C)C(=O)C[C@@H]12", "%", 66.67]
]}

====

// reported α-Glucosidase Inhibition (%) per item
Test system: α-glucosidase
Experiment: α-Glucosidase enzyme inhibition assay
Type: biochemical
Conditions: sample concentration 200 µg/mL

{"columns": ["Molecule", "Target Entity", "α-Glucosidase Inhibition (%)"],
 "data": [
  ["C[C@H]1O[C@H](O[C@H]2[C@H](O)[C@@H](O)[C@@H](O[C@H]3[C@H](O)[C@@H](O)C(O)O[C@@H]3CO)O[C@@H]2CO)[C@H](O)[C@@H](O)[C@@H]1N[C@H]1C=C(CO)[C@@H](O)[C@H](O)[C@H]1O (stereo partly drawn) [Acarbose, acarbose, reference compound]", "α-glucosidase", 52.92],
  ["CC(=O)O[C@H]1CC(=O)OC(C)(C)[C@@H]2CC(=O)[C@]3(C)[C@H](CC[C@@]4(C)[C@H](c5ccoc5)OC(=O)[C@H]5O[C@]543)[C@@]12C", "α-glucosidase", 4.75],
  ["CC1(C)OC(=O)C=C[C@]2(C)[C@H]3CC[C@@](C)([C@@H](O[C@@H]4O[C@H](CO)[C@@H](O)[C@H](O)[C@H]4O)c4ccoc4)[C@@]4(O[C@@H]4C(=O)O)[C@]3(C)C(=O)C[C@@H]12 [Cpd4, obacunone 17-O-β-D-glucopyranoside]", "α-glucosidase", 46.81],
  ["CC1(C)OC2CC(=O)OCC23C1CC(=O)C1(C)C3CC[C@@](C)([C@@H](O[C@@H]2O[C@H](CO)[C@@H](O)[C@H](O)[C@H]2O)c2ccoc2)C12OC2C(=O)O (stereo partly drawn) [Cpd5, limonin 17-O-β-D-glucopyranoside]", "α-glucosidase", 47.67],
  ["CC1(C)O[C@H]2CC(=O)OC[C@]23[C@H]2CC[C@@]4(C)[C@H](c5ccoc5)OC(=O)[C@H]5O[C@]54[C@]2(C)C(=O)C[C@@H]13", "α-glucosidase", 4.34],
  ["CC1(C)OC(=O)C[C@H](O)[C@]2(C)[C@H]3CC[C@@]4(C)[C@H](c5ccoc5)OC(=O)[C@H]5O[C@]54[C@]3(C)C(=O)C[C@@H]12", "α-glucosidase", 29.59]
]}

====

Test system: α-amylase
Assay: Native electrophoretic α-amylase isoenzyme pattern (PAGE)
Format: biochemical
Settings: standard enzyme treated with 100 µg/mL
Attribute Measured: Change in electrophoretic α-amylase isoenzyme pattern

{"columns": ["Molecule", "Reading"],
 "data": [
  ["CC1(C)OC(=O)C=C[C@]2(C)[C@H]3CC[C@@](C)([C@@H](O[C@@H]4O[C@H](CO)[C@@H](O)[C@H](O)[C@H]4O)c4ccoc4)[C@@]4(O[C@@H]4C(=O)O)[C@]3(C)C(=O)C[C@@H]12 [Cpd4, obacunone 17-O-β-D-glucopyranoside]", "severe abnormalities"],
  ["CC1(C)OC2CC(=O)OCC23C1CC(=O)C1(C)C3CC[C@@](C)([C@@H](O[C@@H]2O[C@H](CO)[C@@H](O)[C@H](O)[C@H]2O)c2ccoc2)C12OC2C(=O)O (stereo partly drawn) [Cpd5, limonin 17-O-β-D-glucopyranoside]", "severe abnormalities"]
]}

====

Test: DPPH radical scavenging activity
Conditions: sample concentration 50 µg/mL
// reported DPPH Inhibition (%) per item

{"columns": ["Molecule", "DPPH Inhibition (%)"],
 "data": [
  ["CC1(C)OC(=O)C=C[C@]2(C)[C@H]3CC[C@@](C)([C@@H](O[C@@H]4O[C@H](CO)[C@@H](O)[C@H](O)[C@H]4O)c4ccoc4)[C@@]4(O[C@@H]4C(=O)O)[C@]3(C)C(=O)C[C@@H]12 [Cpd4, obacunone 17-O-β-D-glucopyranoside]", 23.63],
  ["CC1(C)O[C@H]2CC(=O)OC[C@]23[C@H]2CC[C@@]4(C)[C@H](c5ccoc5)OC(=O)[C@H]5O[C@]54[C@]2(C)C(=O)C[C@@H]13", 11.10],
  ["O=C1O[C@H]([C@@H](O)CO)C(O)=C1O [Ascorbic Acid, ascorbic acid, reference compound]", 26.17]
]}

====

// reported IC50 against ABTS radical per item
Assay: ABTS radical scavenging assay
Details: Fig. 2a
Attribute Measured: IC50 against ABTS radical (µg/mL)

{"columns": ["Molecule", "Attribute Measured", "Reading"],
 "data": [
  ["CC1(C)OC2CC(=O)OCC23C1CC(=O)C1(C)C3CC[C@@](C)([C@@H](O[C@@H]2O[C@H](CO)[C@@H](O)[C@H](O)[C@H]2O)c2ccoc2)C12OC2C(=O)O (stereo partly drawn) [Cpd5, limonin 17-O-β-D-glucopyranoside]", "IC50 against ABTS radical", 4.48],
  ["CC1(C)OC(=O)C[C@H](O)[C@]2(C)[C@H]3CC[C@@]4(C)[C@H](c5ccoc5)OC(=O)[C@H]5O[C@]54[C@]3(C)C(=O)C[C@@H]12 [Cpd2, deacetylnomilin]", "IC50 against ABTS radical", 6.02],
  ["O=C1O[C@H]([C@@H](O)CO)C(O)=C1O [Ascorbic Acid, ascorbic acid, reference compound]", "IC50 against ABTS radical", 4.17],
  ["CC1(C)OC(=O)C=C[C@]2(C)[C@H]3CC[C@@](C)([C@@H](O[C@@H]4O[C@H](CO)[C@@H](O)[C@H](O)[C@H]4O)c4ccoc4)[C@@]4(O[C@@H]4C(=O)O)[C@]3(C)C(=O)C[C@@H]12 [Cpd4, obacunone 17-O-β-D-glucopyranoside]", "IC50 against ABTS radical", 4.53]
]}

====

Assay: Total antioxidant capacity (TAC), method of Prieto et al.
Settings: sample concentration 200 µg/mL
Attribute Measured: TAC (mg gallic acid/g)

{"columns": ["Compound", "Attribute Measured", "Reading"],
 "data": [
  ["CC1(C)OC2CC(=O)OCC23C1CC(=O)C1(C)C3CC[C@@](C)([C@@H](O[C@@H]2O[C@H](CO)[C@@H](O)[C@H](O)[C@H]2O)c2ccoc2)C12OC2C(=O)O (stereo partly drawn) [Cpd5, limonin 17-O-β-D-glucopyranoside]", "TAC", 86.96],
  ["CC1(C)O[C@H]2CC(=O)OC[C@]23[C@H]2CC[C@@]4(C)[C@H](c5ccoc5)OC(=O)[C@H]5O[C@]54[C@]2(C)C(=O)C[C@@H]13", "TAC", 40.46],
  ["CC1(C)OC(=O)C[C@H](O)[C@]2(C)[C@H]3CC[C@@]4(C)[C@H](c5ccoc5)OC(=O)[C@H]5O[C@]54[C@]3(C)C(=O)C[C@@H]12", "TAC", 68.88],
  ["CC(=O)O[C@H]1CC(=O)OC(C)(C)[C@@H]2CC(=O)[C@]3(C)[C@H](CC[C@@]4(C)[C@H](c5ccoc5)OC(=O)[C@H]5O[C@]543)[C@@]12C", "TAC", 40.87],
  ["O=C1O[C@H]([C@@H](O)CO)C(O)=C1O [Ascorbic Acid, ascorbic acid, reference compound]", "TAC", 95.34],
  ["CC1(C)OC(=O)C=C[C@]2(C)[C@H]3CC[C@@](C)([C@@H](O[C@@H]4O[C@H](CO)[C@@H](O)[C@H](O)[C@H]4O)c4ccoc4)[C@@]4(O[C@@H]4C(=O)O)[C@]3(C)C(=O)C[C@@H]12 [Cpd4, obacunone 17-O-β-D-glucopyranoside]", "TAC", 86.10]
]}
